studySystem: UniProt:Q9DFH3
Sequence (Q9DFH3 1-391): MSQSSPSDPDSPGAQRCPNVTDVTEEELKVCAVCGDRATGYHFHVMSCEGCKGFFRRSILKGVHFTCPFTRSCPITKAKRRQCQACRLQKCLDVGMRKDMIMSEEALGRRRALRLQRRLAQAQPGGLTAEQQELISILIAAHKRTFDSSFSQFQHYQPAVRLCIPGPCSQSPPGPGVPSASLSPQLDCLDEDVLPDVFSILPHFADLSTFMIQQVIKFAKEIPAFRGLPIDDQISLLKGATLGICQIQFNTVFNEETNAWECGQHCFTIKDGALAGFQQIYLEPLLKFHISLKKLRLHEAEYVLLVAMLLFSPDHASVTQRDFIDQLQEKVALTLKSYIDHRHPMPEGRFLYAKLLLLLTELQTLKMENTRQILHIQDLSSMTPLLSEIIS
runParameters: chicken
Reported Chicken PXR efficacy, ε by item:

Sample records with Chicken PXR efficacy, ε:
{"compound": "CC(=O)[C@H]1CC[C@H]2[C@@H]3CC[C@@H]4CC(=O)CC[C@]4(C)[C@H]3CC[C@]12C [PR2, 5β-Pregnan-3,20-dione]", "Chicken PXR efficacy, ε": "5.59 (ε = 0.81)"}
{"compound": "CC(C)CCC[C@@H](C)[C@H]1CC[C@H]2[C@@H]3[C@H](O)C[C@@H]4C[C@H](O)CC[C@]4(C)[C@H]3C[C@H](O)[C@]12C [BI023, 5β-Cholestan-3α,7α,12α-triol]", "Chicken PXR efficacy, ε": 0.27}
{"compound": "C[C@@]12CCC[C@H]1[C@@H]1CC[C@H]3C[C@H](O)CC[C@]3(C)[C@H]1CC2 [AN3, 5α-Androstan-3α-ol]", "Chicken PXR efficacy, ε": 0.85}
{"compound": "C[C@]12CCC(=O)C[C@@H]1CC[C@@H]1[C@@H]2CC[C@]2(C)C=CC[C@@H]12 [AN22, 5α-Androst-16-en-3-one]", "Chicken PXR efficacy, ε": 0.77}

Please give measured Chicken PXR efficacy, ε of the following entry: C[C@]12CC[C@H](O)C[C@@H]1CC[C@@H]1[C@@H]2CC[C@]2(C)C=CC[C@@H]12 [AN21, 5α-Androst-16-en-3β-ol]
2.99

====

studySystem: UniProt:Q9DFH3
methodDescription: cell-based
Please use Criterion met for EC50 under 9 µM and Criterion not met for everything else, ties included.

Answered examples (2):
{"compound": "CC(CCCC(CO)COS(=O)(=O)O)[C@H]1CCC2C3C(C[C@H](O)[C@@]21C)[C@@]1(C)CC[C@@H](O)C[C@@H]1C[C@H]3O (stereo partly shown) [BI036]", "groupLabel": "Criterion not met"}
{"compound": "CC(=O)[C@H]1CC[C@H]2[C@@H]3CC[C@@H]4CC(=O)CC[C@]4(C)[C@H]3CC[C@]12C [PR2, 5β-Pregnan-3,20-dione]", "groupLabel": "Criterion met"}

Strictly below 9 µM: is that where EC50 of C[C@H](CCC(=O)O)[C@H]1CC[C@H]2[C@@H]3[C@H](O)C[C@@H]4C[C@H](O)CC[C@]4(C)[C@H]3CC[C@]12C [BI005, Chenodeoxycholic acid] sits?
Criterion not met

Report whether reported EC50 is lower than 9 µM (strictly) for CC(CCC(=O)NCC(=O)O)C1CCC2C3C(O)CC4CC(O)CCC4(C)C3CCC12C (stereo not shown) [BI006, Glycochenodeoxycholic acid]
Criterion not met

API: query returns whether the compound falls strictly under 9 µM in EC50. Query: Clc1cc2c(cc1Cl)Oc1cc(Cl)c(Cl)cc1O2 [MI34, 2,3,7,8-tetrachlorodibenzo-p-dioxin]
Criterion met

Quick check: EC50 of C[C@@]12CCC[C@H]1[C@@H]1CC[C@H]3C[C@H](O)CC[C@]3(C)[C@H]1CC2 [AN3, 5α-Androstan-3α-ol] under 9 µM?
Criterion met

Is it true that EC50 reported for CC(C)CCC[C@@H](C)[C@H]1CC[C@H]2[C@@H]3[C@H](O)C[C@@H]4C[C@H](O)CC[C@]4(C)[C@H]3C[C@H](O)[C@]12C [BI023, 5β-Cholestan-3α,7α,12α-triol] is less than 9 µM?
Criterion met

Strictly below 9 µM in EC50? C[C@]12CC[C@H](O)C[C@@H]1CC[C@@H]1[C@@H]2CC[C@]2(C)C=CC[C@@H]12 [AN21, 5α-Androst-16-en-3β-ol]
Criterion met

Consider C[C@]12CCC(=O)C[C@@H]1CC[C@@H]1[C@@H]2CC[C@]2(C)C=CC[C@@H]12 [AN22, 5α-Androst-16-en-3-one] . Does its EC50 lie strictly below 9 µM?
Criterion not met

Is the reported EC50 for C[C@]12CC[C@@H](O)C[C@@H]1CC[C@@H]1[C@@H]2CC[C@]2(C)[C@@H](O)CC[C@@H]12 [AN1, 5α-Androstan-3α,17β-diol] strictly below 9 µM?
Criterion met

The measurements presented in this section are drawn from paper PMC2358886.
